Target: T1, CRF2R
T1 sequence (Q13324 whole entry, species assumed, looked up): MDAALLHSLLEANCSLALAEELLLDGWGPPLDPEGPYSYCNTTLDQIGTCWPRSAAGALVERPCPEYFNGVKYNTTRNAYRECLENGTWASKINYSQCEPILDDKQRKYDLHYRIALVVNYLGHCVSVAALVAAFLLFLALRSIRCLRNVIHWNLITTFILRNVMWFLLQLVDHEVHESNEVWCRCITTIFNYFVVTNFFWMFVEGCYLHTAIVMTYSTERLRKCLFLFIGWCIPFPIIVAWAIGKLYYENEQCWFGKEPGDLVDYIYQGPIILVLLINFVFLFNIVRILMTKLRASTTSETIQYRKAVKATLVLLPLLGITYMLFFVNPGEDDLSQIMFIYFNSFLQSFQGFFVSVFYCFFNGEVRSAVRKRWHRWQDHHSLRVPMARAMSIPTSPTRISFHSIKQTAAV
Assay: cell-based or functional assay
Ends that are not written are not given here.

{"columns": ["binder", "inequality-operator", "CRF2R EC50 (nM)"],
 "data": [
  ["IVLSLDVPIGLLQILLEQARARAAREQATSNRKLMEII-NH2 [SEQ ID NO 163]", "=", 4.49],
  ["DNPSLSIDLPFHLLRTLLELARTQSQRERAEQNAIIFASV-NH2 [SEQ ID NO 185]", "=", 8.98],
  ["IVLSLDVPIGLLQELLEMARAEQLAQQAHSNRKLMEII-NH2 [SEQ ID NO 1]", "=", 31.5],
  ["IVLSLDVPIGLLQILIEIEKQEKEKQQAATTNARILARV-NH2 [SEQ ID NO 168]", "=", 4.9],
  ["IVLSLDVPIGLLQILIEIEKQEKEKQQAANNRLLLDTI-NH2 [SEQ ID NO 154]", "=", 10.3],
  ["ZGPPISIDLPTWLLRKMIEIEKQEKEKQQAANNRLLLDTI (C-terminal amide) [SEQ ID NO 41]", "=", 18.3],
  ["SQEPPISLDLPTELLREVLEMTKADQLAQQAHSNRKIIDIA-NH2 [SEQ ID NO 92]", "=", 100],
  ["ZGPPISIDLPTYLLRKMIEIEKQEKEKQQAANNRLLLDTI (C-terminal amide) [SEQ ID NO 70]", "=", 18.2],
  ["IVLSLDVPIGLLQILLEQAAAAREQATTNARILARV-NH2 [SEQ ID NO 134]", ">", 100],
  ["SQEPPISLDLPIHLLREVLEMTKADQLAQQAHSNRKLLDIA-NH2 [SEQ ID NO 94]", "=", 100],
  ["IVLSLDVPIGLLQILLEQARADAAREQATTNARILARV-NH2 [SEQ ID NO 130]", "=", 8.57],
  ["ZGPPISIDLPTHLLRKMIEIEKQEKEKQQAANNRLLLDTI (C-terminal amide) [SEQ ID NO 74]", "=", 55]
]}
